EXPERIMENTAL_PROTOCOL: Permeability of the compound by PAMPA method
Assay type: ADME
EXPERIMENTAL_CONDITIONS: read-out: Peff
OUTCOME_MEASURE: Papp

Endpoint output: Papp of CCS(=O)(=O)N1CC[C@H](Nc2c(Br)cnc3[nH]c(-c4cc(C)n(-c5ccc(C(=O)N(C)CCN(C)C)cc5)c4C)nc23)C1 . Value? 8.91 ×10⁻⁶ cm/s

// next entry
Name the reported Papp value associated with the compound CCS(=O)(=O)N1CC[C@H](Nc2c(Br)cnc3nc(-c4cc(C)n(-c5cccc(C(=O)NCCN(C)C)c5C)c4C)[nH]c23)C1 21.2 ×10⁻⁶ cm/s
